Collected CC50 at 72 h values appear next to each entry.
Assay: Cytotoxicity against human HT1080 cells after 3 days by sulforhodamine B assay
Format: cell-based, HT-1080
Conditions: read-out: ED50
Answer format: value, then unit.

COc1ccc2cc1Oc1ccc(cc1)C[C@H]1c3c(cc(OC)c(O)c3Oc3cc4c(cc3OC)CCN[C@@H]4C2)CCN1C    6.9 µg/mL
COc1ccc2cc1Oc1ccc(cc1)C[C@H]1c3cc(c(OC)cc3CCN1C)Oc1c(OC)c(OC)cc3c1[C@@H](C2)NCC3    7.5 µg/mL
CCN(CC)CCCC(C)Nc1ccnc2cc(Cl)ccc12 (centres undefined)    6.5 µg/mL

Kindly review the next compound as well.
Problem: For the compound `COc1ccc2cc1Oc1ccc(cc1)C[C@H]1c3c(cc(O)c(OC)c3Oc3cc4c(cc3OC)CCN(C)[C@@H]4C2)CCN1C` , report CC50 at 72 h.
Result: 7.2 µg/mL

---

Test: Selectivity index, ratio of ED50 for human ZR-75-1 cells to ED50 for chloroquine-sensitive Plasmodium falciparum D6
Assay type: toxicity, cell-based
Conditions: read-out: Ratio ED50
Consider the cut-off 20. If the recorded selectivity ratio is strictly smaller, the label is YES; if not, the label is NO.

COc1ccc2cc1Oc1ccc(cc1)C[C@H]1c3cc(c(OC)cc3CCN1C)Oc1c(OC)c(OC)cc3c1[C@@H](C2)NCC3    NO

Problem: Identify whether the compound `COc1ccc2cc1Oc1ccc(cc1)C[C@H]1c3c(cc(OC)c4c3Oc3cc5c(cc3O4)CCN(C)[C@@H]5C2)CCN1C` records selectivity ratio below 20.
Result: YES

Problem: Identify whether the compound `COc1ccc2cc1Oc1ccc(cc1)C[C@H]1c3c(cc(O)c(OC)c3Oc3cc4c(cc3OC)CCN(C)[C@@H]4C2)CCN1C` records selectivity ratio below 20.
Result: YES

Problem: Strictly below 20: is that where selectivity ratio of `COc1ccc2cc1Oc1ccc(cc1)C[C@H]1c3cc(c(OC)cc3CCN1C)Oc1c(OC)c(OC)cc3c1[C@@H](C2)N(C)CC3` sits?
Result: NO

Problem: Lab log: compare recorded selectivity ratio with 20; is it strictly lower for `COc1ccc2cc1Oc1ccc(cc1)C[C@H]1c3c(cc(OC)c4c3Oc3cc5c(cc3O4)CCN=C5C2)CCN1C` ?
Result: YES

Problem: Lab log: compare recorded selectivity ratio with 20; is it strictly lower for C=C[C@H]1CN2CC[C@H]1C[C@H]2[C@H](O)c1ccnc2ccc(OC)cc12 [QUININE] ?
Result: NO

Problem: Would you kindly verify if selectivity ratio of COc1ccc2cc1Oc1ccc(cc1)C[C@H]1c3c(cc4c(c3Oc3cc5c(cc3OC)CCN(C)[C@@H]5C2)OCO4)CCN1C [CEPHARANTHINE] is strictly less than 20?
Result: YES

Problem: Check if selectivity ratio falls below 20 for `COc1ccc2cc1Oc1ccc(cc1)C[C@H]1c3cc(c(OC)cc3CCN1C)Oc1c(O)c(OC)cc3c1[C@@H](C2)N(C)CC3` .
Result: NO

Problem: # TODO verify selectivity ratio < 20 strictly for this compound: COc1ccc2cc1Oc1ccc(cc1)C[C@H]1c3c(cc(OC)c(OC)c3Oc3cc4c(cc3OC)CCN(C)[C@@H]4C2)CCN1C [OBABERINE]
Result: YES

Problem: is_below(selectivity ratio, 20) for `COc1ccc2cc1Oc1ccc(cc1)C[C@H]1c3c(cc4c(c3Oc3cc5c(cc3OC)CCN[C@@H]5C2)OCO4)CCN1C` ?
Result: YES

Problem: A record lists COc1ccc2cc1Oc1ccc(cc1)C[C@H]1c3c(cc(OC)c(O)c3Oc3cc4c(cc3OC)CCN(C)[C@@H]4C2)CCN1C [HOMOAROMOLINE] . Is its selectivity ratio below 20?
Result: YES
